The origin of these recorded values is ChEMBL document CHEMBL1201862.

Tested on: CAKI-1
assay-comment: NCI tumour cell line growth inhibition, 48 h
Activity calls are given as the source filed them. Cut-off read from the data, not from the text of the source: active = GI50 up to about 1.1 µM and inactive = higher.
Hi! Could you answer with just one of these? active, inactive

molecule: COc1ccccc1/C=N/Nc1nnc2c3ccccc3c3ncccc3c2n1
qualitative-label: inactive

molecule: Cc1ccc(/C=N/Nc2cnccn2)s1
qualitative-label: inactive

molecule: Cc1ccc(S(=O)(=O)OC2=C/C(=N\c3onc(C)c3C)c3ccccc3C2=O)cc1
qualitative-label: inactive

molecule: O=C(O)C1C2C=CC(O2)C1C(=O)Nc1ncccn1 (centres undefined)
qualitative-label: inactive

molecule: CCCC#CC(O)(C(=O)OC1CCN(C)CC1)C1CCCCC1 (centres undefined)
qualitative-label: inactive

molecule: C1=C(c2ccccc2)SC=C(c2ccccc2)S1
qualitative-label: inactive

molecule: CS(=O)(=O)Sc1ccc(Cl)cc1
qualitative-label: inactive

molecule: CCOC(=O)COc1ccc(/C=C/C(=O)c2ccc(OC)cc2)cc1
qualitative-label: inactive

Could you please tell me the result logged for `CCN(CC)c1ccc(/N=C2\C=C(Cl)C(=O)c3ncccc32)c(C)c1` in this assay?
inactive

Returns: the outcome recorded for `COc1ccc2c(O)c(Oc3ccc(Cl)cc3)c(=O)oc2c1` in this assay.
inactive

Recorded test outcome, item `O=C(O)C(=Cc1ccnc2ccccc12)C(=O)O`
inactive

Field: outcome | Entry: `Cc1nc2ccc(/N=N/N(C)C)cc2[nH]1`
inactive

Which result was noted for this molecule in the test: `O=c1[nH]c2ccccc2c(=O)n1/N=C/c1ccc(O)cc1`
inactive

Hi, sorry to bother you, what did the test record for `Oc1ccccc1CNCc1ccccc1O` ?
inactive

Called result for `O=C1NC2=NN=C(c3ccc(Br)cc3)CN2NC12c1ccccc1-c1ccccc12`
inactive

Could you please tell me the result logged for COC(=O)C12Oc3ccc(-c4ccc5c(c4O)C(O)=C4C(=O)CC(C)C(O)C4(C(=O)OC)O5)c(O)c3C(O)=C1C(=O)CC(C)C2O (centres undefined) in this assay?
active

Which outcome was entered for the molecule `O=C(c1ccccc1)c1c(C(F)(F)F)[n+]([O-])c2ccccc2[n+]1[O-]` in this test?
active

State the result this test recorded for `CCCc1c(C(=O)OCC)[nH]c(-c2ccc(-c3[nH]c(C(=O)OCC)c(CCC)c3C(=O)OCC)s2)c1C(=O)OCC` .
inactive

Short answer needed: outcome of this test for `N#Cc1c(-c2nc3ccccc3s2)c(=O)oc2cc(O)ccc12` ?
inactive

Can you look up the reported call for `CC(C)(C)NC(=O)/C(=C\Sc1ccccc1)c1ccc2c(c1)OCO2` for me?
inactive

Tell me the assay call for `CCOC(=O)C1(C(=O)OCC)C[C@]23OCCC(=O)[C@H]2[C@H]2C(=O)OC(C)(C)O[C@]23C1` please.
inactive

Which outcome did this test record for the molecule `CN1CCN(c2cc3nc4cc(O)cc(O)c4c(O)c3cc2N)CC1` ?
inactive

Kindly provide the recorded test outcome for the following molecule: `CCOC(=O)/C(=C\NCC(OCC)OCC)c1nc2ccccc2[nH]1`
inactive

---

Test system: SNB-75
assay-comment: NCI tumour cell line growth inhibition, 48 h
Activity calls are given as the source filed them. Rule as the data show it: active = GI50 up to about 1.1 µM and inactive = higher.
The reply should name one outcome from Y for active, N for inactive

# count of solved cases: 6
compound: CSc1cc(-c2ccccn2)nc(-c2ccccn2)c1
qualitative-label: Y
//
compound: COC(=O)C1CCC(=S)N1C(=O)OCc1ccccc1 (stereo unspecified)
qualitative-label: N
//
compound: COc1ccc(C=C(c2ccc(OCc3ccccc3)cc2)c2ccc(OCc3ccccc3)cc2)cc1
qualitative-label: N
//
compound: N#CC1(CCCCl)CCCCC1
qualitative-label: N
//
compound: Cc1cccc(C(C)O)n1 (stereo unspecified)
qualitative-label: N
//
compound: CC(C)S(=O)(=O)n1c(N)nc2ccc(/C(=N/O)c3ccccc3)cc21 [ENVIROXIME]
qualitative-label: N

Assay result, entry `Oc1ccc2ccccc2c1CN(Cc1c(O)ccc2ccccc12)C1CCCCC1` — outcome?
N

Recorded call for `C[C@]12C[C@H](c3ccccc3)Nc3ccccc3N1C(c1ccccc1)=NO2` ?
N

So what was the verdict on `Cn1c([N+](=O)[O-])cnc1CN1CCN(CCO)CC1` in this test?
N

For `NCC(=O)NC1(c2cc3ccccc3s2)CCCCC1` , which call appears in the assay record?
N

Recorded call for `COc1ccc(Nc2nc(NNC(=O)Cc3ccccc3)nc(NNC(=O)c3ccncc3)n2)cc1` ?
N

What is the recorded call for this compound in the test? CC(NNC(=O)c1ccncc1)c1ccc(F)cc1 (stereo unspecified)
N

// outcome(item) with item = `NC1c2ccccc2Nc2ccccc21`
N

Call for entry CCOC(=O)C(Cc1ccccc1)NC(=O)c1nc[nH]c1/N=N/N(C)C (stereo unspecified) :
N

Assay result, entry `Cc1ccc(NC(=O)C(=O)CC(=O)c2c(C)[n+]([O-])c3ccccc3[n+]2[O-])cc1` — outcome?
N
